Test: Cycloheximide Counterscreen for Small Molecule Inhibitors of Shiga Toxin; also: read at 38.3 µM for the half of the compounds with a filed dose; 0% is about no effect
Settings: cell reporter, cycloheximide protein synthesis inhibition counterscreen; stronger effect = higher value
Among all 300,000 compounds or so, about 37,000 (12%) were called active. The sample as a whole holds a higher share of actives than the screen did.
The reader will find reported max response values listed item by item below.
Give the value in % but do not write % after it.

COc1ccc2cc(CCl)c(Cl)nc2c1	27
COc1ccc(NC(=O)COC(=O)c2ccc(NS(=O)(=O)/C=C/c3ccccc3)cc2)cc1	0.764
COc1ccc(CN2CCC(c3nc4ccc(Cl)cc4[nH]3)CC2)cc1	-5.26
CCn1c(Cc2ccc(OC)cc2)nnc1SCC(=O)Nc1ccc(N2CCOCC2)cc1	-3.63

Note max response for the compound shown: CCc1cc2cc(OC)ccc2nc1SCC(=O)Nc1cc(OC)c(OC)cc1C(=O)O
-1.72
